- Test target: human TLR8 (Homo sapiens, UniProt Q9NR97)
- Sequence (Q9NR97 27-1041): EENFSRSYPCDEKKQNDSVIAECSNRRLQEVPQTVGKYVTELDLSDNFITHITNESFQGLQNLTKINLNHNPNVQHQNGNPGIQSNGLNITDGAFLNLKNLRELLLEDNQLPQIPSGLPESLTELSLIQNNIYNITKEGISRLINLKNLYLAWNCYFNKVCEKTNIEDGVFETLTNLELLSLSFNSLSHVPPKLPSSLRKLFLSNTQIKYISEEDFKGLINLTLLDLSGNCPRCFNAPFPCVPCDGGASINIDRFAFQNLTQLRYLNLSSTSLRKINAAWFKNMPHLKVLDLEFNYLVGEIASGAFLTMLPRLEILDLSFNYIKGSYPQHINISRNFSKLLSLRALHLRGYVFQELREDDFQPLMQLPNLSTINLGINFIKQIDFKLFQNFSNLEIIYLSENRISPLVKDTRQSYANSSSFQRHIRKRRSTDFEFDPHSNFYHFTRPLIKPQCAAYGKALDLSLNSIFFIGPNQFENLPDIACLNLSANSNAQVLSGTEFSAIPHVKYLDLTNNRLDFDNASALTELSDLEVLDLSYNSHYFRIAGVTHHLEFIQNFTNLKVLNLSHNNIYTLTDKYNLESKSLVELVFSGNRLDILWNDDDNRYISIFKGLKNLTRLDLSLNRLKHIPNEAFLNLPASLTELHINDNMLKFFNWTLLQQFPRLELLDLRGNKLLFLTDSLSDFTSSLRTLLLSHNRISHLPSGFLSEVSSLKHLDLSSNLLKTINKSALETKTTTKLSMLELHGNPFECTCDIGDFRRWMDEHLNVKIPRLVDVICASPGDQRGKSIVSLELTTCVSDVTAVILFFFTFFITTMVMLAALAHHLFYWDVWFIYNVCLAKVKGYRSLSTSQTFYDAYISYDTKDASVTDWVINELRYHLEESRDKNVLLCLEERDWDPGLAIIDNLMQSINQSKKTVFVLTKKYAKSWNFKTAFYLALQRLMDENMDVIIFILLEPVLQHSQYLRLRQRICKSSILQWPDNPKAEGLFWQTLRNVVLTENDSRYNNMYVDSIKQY
- Measurement protocol: TLR8 inhibition reporter assay (HEK-Blue cells, SEAP reporter, R848 stimulation)
- Test settings: HEK-Blue cells overexpressing human TLR8, SEAP reporter, R848 15.9 μM
Assay endpoint: IC50 (nM)

{"Compound": "COc1cc(-c2[nH]c3ccc(C4CCC(NC5CC5)CC4)cc3c2C(C)C)cn2ncnc12 (stereo not drawn) [Example 11]", "Test target": "human TLR8 (Homo sapiens, UniProt Q9NR97)", "IC50 [nM]": 3.7}
{"Compound": "Cc1cc(-c2[nH]c3ccc(C4CCC(N5CCN(C)CC5)CC4)cc3c2C(C)C)cc(C)n1 (single isomer, unassigned) [Example 37]", "Test target": "human TLR8 (Homo sapiens, UniProt Q9NR97)", "IC50 [nM]": 56}
{"Compound": "Cc1cc(-c2[nH]c3ccc(C4CNCCO4)cc3c2C(C)C)cn2ncnc12 (stereo not drawn) [Example 282]", "Test target": "human TLR8 (Homo sapiens, UniProt Q9NR97)", "IC50 [nM]": 1}
{"Compound": "CNCC(=O)NC1CCC(c2ccc3[nH]c(-c4cc(C)nc(C)c4)c(C(C)C)c3c2)CC1 (single isomer, unassigned) [Example 129]", "Test target": "human TLR8 (Homo sapiens, UniProt Q9NR97)", "IC50 [nM]": 3.9}
{"Compound": "COc1cc(-c2[nH]c3ccc(CCN4CCN(C)CC4)cc3c2C(C)C)cn2ncnc12 [Example 413]", "Test target": "human TLR8 (Homo sapiens, UniProt Q9NR97)", "IC50 [nM]": 0.9}
{"Compound": "COc1ccc(CNC2CCC(c3ccc4[nH]c(-c5cc(C)nc(C)c5)c(C(C)C)c4c3)CC2)cc1 (single isomer, unassigned) [Example 49]", "Test target": "human TLR8 (Homo sapiens, UniProt Q9NR97)", "IC50 [nM]": 22}

(1) CNC(=O)CN1CCCC(c2ccc3[nH]c(-c4cn5ncnc5c(C)c4C)c(C(C)C)c3c2)C1 (stereo not drawn) [Example 232]
(2) Cc1c(-c2[nH]c3ccc(C4CCC(NCC(C)(C)O)CC4)cc3c2C(C)C)cn2ncnc2c1C (stereo not drawn) [Example 106]
Lab notebook, comparison: 1 versus 2 , higher IC50 goes to which? Respond using the label that marks the chosen record.
1
(1: 8.1 nM, 2: 0.28 nM)
